Every entry's value here was drawn from ChEMBL document CHEMBL1201862.

test system: LOX IMVI; experiment: NCI tumour cell line growth inhibition, 48 h
The source made the active and inactive calls. Cut-off read from the data, not from the text of the source: active = GI50 up to about 1.1 µM and inactive = higher.
Log the outcome using a class from active, inactive

Example results:
COc1ccc(Cn2c3ccc([N+](=O)[O-])cc3c(=O)n2Cc2ccccn2)cc1 :: inactive
COc1ccc(N[S+]([O-])CCCc2ccccc2)cc1 (stereo not drawn) :: inactive
CC(C)C(Sc1nc(-c2ccccc2)c(-c2ccccc2)[nH]1)C(=O)NNC(=S)Nc1ccccc1 (stereo not drawn) :: inactive
CCOC(=O)/C=C(\C(=O)OCC)n1cc(C)c(=O)n(Cc2cnnn2COCCOC(C)=O)c1=O :: inactive
O=C1CCCCN1 :: inactive
O=c1oc2c(Cl)cc(Cl)cc2cc1-c1cn2c(n1)sc1ccccc12 :: inactive
N#Cc1cnn2c1n[n+]([O-])c1ccc(Cl)cc12 :: inactive
COc1ccc(C2C=C(c3ccc4c(c3)OCO4)Oc3c2c(=O)oc2ccccc32)cc1OC (stereo not drawn) :: active
COc1ccc(-n2c(CCCC(=O)O)nc3c2C(=O)c2ccccc2C3=O)cc1 :: inactive
CN(C)c1ccc(C(C#N)N2CCCN(C(C#N)c3ccc(N(C)C)cc3)C2c2ccc(N(C)C)cc2)cc1 (stereo not drawn) :: inactive

For `N=C(N)SCCc1ccccn1` , what call appears in the results of this test? inactive

For `CCOc1cc(/C=C2\N=C(c3ccccc3)N(c3nc4ccccc4s3)C2=O)ccc1O` , what call appears in the results of this test? inactive

For CCOC(=O)CC(=O)N(c1ccc(OC)cc1)C(C(=O)OC)c1ccccc1 (stereo not drawn) , what call appears in the results of this test? inactive
